- MEASURED ON: S1P1 (Homo sapiens, UniProt P21453)
- Sequence (P21453 whole entry, species assumed): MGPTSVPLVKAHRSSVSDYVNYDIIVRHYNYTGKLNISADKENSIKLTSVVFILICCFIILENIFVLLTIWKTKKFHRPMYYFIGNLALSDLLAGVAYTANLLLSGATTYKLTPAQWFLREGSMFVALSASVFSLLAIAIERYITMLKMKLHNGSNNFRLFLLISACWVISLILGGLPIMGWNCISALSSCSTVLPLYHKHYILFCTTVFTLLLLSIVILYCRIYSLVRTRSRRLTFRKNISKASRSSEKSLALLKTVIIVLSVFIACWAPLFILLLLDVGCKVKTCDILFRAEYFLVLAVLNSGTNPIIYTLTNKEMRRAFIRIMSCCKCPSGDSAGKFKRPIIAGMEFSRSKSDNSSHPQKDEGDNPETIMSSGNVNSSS
- EXPERIMENT SUMMARY: Receptor binding assay, [33P]sphingosine 1-phosphate competition, S1P1 membranes, WGA SPA beads
- EXPERIMENTAL CONTEXT: 96 well-plate; read-out: S1P1 binding Ki (M) (96 well-plate)
- Protocol: Membranes were prepared from CHO cells expressing S1P1 or S1P3 for use in ligand and 355-GTPγS binding studies. […] Receptor binding assay: [33P]sphingosine 1-phosphate (3000 Ci/mmol; American Radiolabeled Chemicals, Inc.) was added to test compounds in 20% DMSO by competition. […] Binding was performed for 60 min at RT on a shaker and bound radioactivity was measured on a PerkinElmer 1450 MicroBeta counter. […] Binding data were analyzed using the GraphPad Prism program or Genedata software.
Structures can show the parent of a compound that is named as a salt.
Reported values of Ki for individual entries
MEASURED ENDPOINT: Ki (M)

{"MOLECULE": "COc1cc(-c2noc(-c3ccc(N4CCCCC4C)c(C(F)(F)F)c3)n2)ccc1CN(C)CC(=O)O (stereo not drawn) [Example 80, hydrochloride salt]", "MEASURED ENDPOINT": "Ki", "UNITS OF MEASURE": "M", "RESULT VALUE": "1.6e-09"}
{"MOLECULE": "CCOc1cc(-c2nc(-c3cccc(CN(C)CC(=O)O)c3)no2)ccc1-c1ccccc1C [Example 30, hydrochloride salt]", "MEASURED ENDPOINT": "Ki", "UNITS OF MEASURE": "M", "RESULT VALUE": "2.01e-10"}
{"MOLECULE": "CC1CCCCN1c1ccc(-c2nc(-c3cccc(COCCC(=O)O)c3)no2)cc1C(F)(F)F (stereo not drawn) [Example 12, hydrochloride salt]", "MEASURED ENDPOINT": "Ki", "UNITS OF MEASURE": "M", "RESULT VALUE": "3.08e-09"}
{"MOLECULE": "C[C@@H]1CCCCN1c1ccc(-c2nc(-c3cccc(CN(C)CC(=O)O)c3)no2)cc1C(F)(F)F [Example 45, hydrochloride salt]", "MEASURED ENDPOINT": "Ki", "UNITS OF MEASURE": "M", "RESULT VALUE": "5.2e-10"}
{"MOLECULE": "COCc1cc(-c2nc(-c3cc(F)cc(CN(C)CCC(=O)O)c3)no2)ccc1-c1ccccc1C [Example 21, hydrochloride salt]", "MEASURED ENDPOINT": "Ki", "UNITS OF MEASURE": "M", "RESULT VALUE": "1.17e-10"}
{"MOLECULE": "Cc1cc(-c2nc(-c3ccc(CN(C)CC(=O)O)cc3)no2)ccc1-c1ccccc1C(F)F [Example 137, hydrochloride salt]", "MEASURED ENDPOINT": "Ki", "UNITS OF MEASURE": "M", "RESULT VALUE": "8.55e-10"}
